# TESTED_SYSTEM: D(2) dopamine receptor (Rattus norvegicus, UniProt P61169)
# Sequence (P61169 whole entry): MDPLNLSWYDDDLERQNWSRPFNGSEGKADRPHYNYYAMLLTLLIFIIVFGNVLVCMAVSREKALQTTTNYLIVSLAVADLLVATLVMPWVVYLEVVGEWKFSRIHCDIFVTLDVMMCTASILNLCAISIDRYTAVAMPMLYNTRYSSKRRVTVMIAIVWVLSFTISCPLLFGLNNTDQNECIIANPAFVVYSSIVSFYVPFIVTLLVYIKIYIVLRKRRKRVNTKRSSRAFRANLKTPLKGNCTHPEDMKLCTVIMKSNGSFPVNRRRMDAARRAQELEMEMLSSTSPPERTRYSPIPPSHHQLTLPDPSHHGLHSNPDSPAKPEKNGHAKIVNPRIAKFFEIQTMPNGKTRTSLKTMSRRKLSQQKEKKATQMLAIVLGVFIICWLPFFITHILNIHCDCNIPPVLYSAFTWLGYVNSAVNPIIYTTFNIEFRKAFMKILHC
MEASURE: pKi
// field semantics: pKi = negative decimal log of concentration (mol/L)

These recorded examples may help you get a feel for the data.
compound=O=C1CC2(CCCC2)CC(=O)N1CCCCN1CCN(c2nsc3ccccc23)CC1 tested_system="D(2) dopamine receptor (Rattus norvegicus, UniProt P61169)" recorded_value=9.30
compound=CN1CCN(C2=Nc3ccccc3Cc3ccccc32)CC1 tested_system="D(2) dopamine receptor (Rattus norvegicus, UniProt P61169)" recorded_value=6.30
compound=CCNC(=O)N1CCN(CCCC(c2ccc(F)cc2)c2ccc(F)cc2)CC1 tested_system="D(2) dopamine receptor (Rattus norvegicus, UniProt P61169)" recorded_value=6.30

Okay, next one:
Tell me its pKi on D(2) dopamine receptor (Rattus norvegicus, UniProt P61169): CN1CCCCC1CCN1c2ccccc2Sc2ccc([S+](C)[O-])cc21 (centres undefined)
8.10

----------
Let's go through some log10 Ki measurements on 5-hydroxytryptamine receptor 2A (Rattus norvegicus) together.
Sequence (P14842 whole entry): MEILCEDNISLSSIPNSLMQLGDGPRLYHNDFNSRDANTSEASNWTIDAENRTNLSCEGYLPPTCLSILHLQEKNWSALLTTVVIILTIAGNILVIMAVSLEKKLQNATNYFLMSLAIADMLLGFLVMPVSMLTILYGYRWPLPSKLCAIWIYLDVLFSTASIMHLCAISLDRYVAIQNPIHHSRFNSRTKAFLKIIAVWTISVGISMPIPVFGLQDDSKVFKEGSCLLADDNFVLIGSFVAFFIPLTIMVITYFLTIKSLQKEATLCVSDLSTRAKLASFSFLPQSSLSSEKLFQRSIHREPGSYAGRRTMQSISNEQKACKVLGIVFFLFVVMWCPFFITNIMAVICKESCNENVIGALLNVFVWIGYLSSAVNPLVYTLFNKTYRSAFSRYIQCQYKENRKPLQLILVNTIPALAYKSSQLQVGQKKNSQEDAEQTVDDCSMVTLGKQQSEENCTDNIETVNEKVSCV
// stored as log10 of Ki expressed in nM

molecule=CN1CCN(C2=Nc3cc(F)ccc3Cc3ccccc32)CC1 measure="log10 Ki" recorded_value=0.80
molecule="CC1CN(CCCn2c3ccccc3c3ccccc32)CC(C)N1 (stereo unspecified)" measure="log10 Ki" recorded_value=3.70
molecule=CCN1CCC[C@H]1CNC(=O)c1c(O)c(Cl)cc(Cl)c1OC measure="log10 Ki" recorded_value=3.70

Tell me its log10 Ki on 5-hydroxytryptamine receptor 2A (Rattus norvegicus): `CCNC(=O)N1CCN(CCCC(c2ccc(F)cc2)c2ccc(F)cc2)CC1`
1.10

Tell me its log10 Ki on 5-hydroxytryptamine receptor 2A (Rattus norvegicus): `CN1CCN(C2=Cc3cc(Cl)ccc3C(=CC#N)c3ccccc32)CC1`
-0.20

Tell me its log10 Ki on 5-hydroxytryptamine receptor 2A (Rattus norvegicus): `CN(C)CC/C=C1\c2ccccc2Sc2ccc(Cl)cc21`
-0.41
